TARGET ENTITY: NLRP3 (Homo sapiens)
Sequence (Q96P20 whole entry): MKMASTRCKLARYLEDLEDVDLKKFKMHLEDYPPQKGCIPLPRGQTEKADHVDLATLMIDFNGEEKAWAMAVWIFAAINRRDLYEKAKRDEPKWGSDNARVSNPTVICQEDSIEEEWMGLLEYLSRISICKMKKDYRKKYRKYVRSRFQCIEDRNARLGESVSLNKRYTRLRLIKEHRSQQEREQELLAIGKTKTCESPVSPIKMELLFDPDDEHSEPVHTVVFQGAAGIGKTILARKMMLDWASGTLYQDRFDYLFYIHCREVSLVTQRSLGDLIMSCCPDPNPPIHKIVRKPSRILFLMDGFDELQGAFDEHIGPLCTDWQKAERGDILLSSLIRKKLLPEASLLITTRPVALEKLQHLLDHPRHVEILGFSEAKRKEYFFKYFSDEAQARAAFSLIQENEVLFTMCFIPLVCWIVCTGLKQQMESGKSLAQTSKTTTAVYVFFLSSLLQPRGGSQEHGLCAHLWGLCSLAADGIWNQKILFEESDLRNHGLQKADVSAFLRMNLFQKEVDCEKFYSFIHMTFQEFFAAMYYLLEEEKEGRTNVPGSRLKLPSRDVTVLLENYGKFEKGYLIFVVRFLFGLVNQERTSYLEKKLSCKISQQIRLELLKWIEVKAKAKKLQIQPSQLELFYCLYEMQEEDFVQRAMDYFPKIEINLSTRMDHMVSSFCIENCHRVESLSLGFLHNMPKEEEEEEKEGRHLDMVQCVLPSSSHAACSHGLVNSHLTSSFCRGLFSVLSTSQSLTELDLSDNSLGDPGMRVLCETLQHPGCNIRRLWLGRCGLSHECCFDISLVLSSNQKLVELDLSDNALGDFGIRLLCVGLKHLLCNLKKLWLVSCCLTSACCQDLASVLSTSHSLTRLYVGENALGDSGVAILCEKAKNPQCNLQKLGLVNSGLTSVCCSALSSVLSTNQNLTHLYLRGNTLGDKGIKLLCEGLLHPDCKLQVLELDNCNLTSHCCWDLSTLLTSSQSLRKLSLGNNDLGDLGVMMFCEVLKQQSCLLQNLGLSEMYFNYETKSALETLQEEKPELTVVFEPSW
PROTOCOL DETAILS: THP-1 cell-based NLRP3 activation assay
EXPERIMENTAL PARAMETERS: PMA-differentiated THP-1 cells, LPS 100 ng/mL then 10 μM nigericin
IC50 for assorted molecules
PROPERTY LABEL: IC50

MOLECULE	TEST RESULT
CCOc1cc(C(=O)N(CCO)Cc2cnc(C)c3cn[nH]c23)ccc1-c1cccc(F)c1 [Compound 051]	< 100 nM
CCOc1cc(C(=O)N(C)[C@H](CO)c2cnc(CO)c3cn[nH]c23)ccc1-c1cccc(Cl)c1 [Compound 036]	< 100 nM
CCOc1cc(C(=O)N(C)[C@@H](CCO)c2cncc3cn[nH]c23)ccc1-c1ccccc1 [Compound 010]	1000 to 15000 nM
Cc1ncc([C@@H](CCO)N(C)C(=O)c2ccc(-c3cccc(Cl)c3)c(OC3CC3)c2)c2[nH]ncc12 [Compound 026]	< 100 nM
CCOc1cc(C(=O)N(Cc2cncc3cn[nH]c23)[C@H]2C[C@@H](CN)C2)ccc1-c1cccc(F)c1 [Compound 248]	< 100 nM
CCOc1cc(C(=O)N(C)C(CN(C)C)c2cncc3cn[nH]c23)ccc1-c1ccccc1 (centres unmarked) [Compound 226]	100 to 500 nM
CCOc1cc(C(=O)N(C)C(CN2CCC2)c2cccc3cn[nH]c23)ccc1-c1cccc(F)c1 (centres unmarked) [Compound 264]	< 100 nM
CCOc1cc(C(=O)N(C)[C@H](CCN(C)C)c2cnc(CO)c3cn[nH]c23)ccc1-c1cccc(F)c1 [Compound 099]	< 100 nM
CCOc1cc(C(=O)N(Cc2cccc3cn[nH]c23)[C@H]2C[C@@H](N(C)C)C2)ccc1-c1cccc(C#N)c1 [Compound 293]	< 100 nM
CCOc1cc(C(=O)N(C)[C@H](CCNCCF)c2cncc3cn[nH]c23)ccc1-c1cccc(F)c1 [Compound 063]	< 100 nM
CCOc1cc(C(=O)N(C)[C@@H](CN(C)C)c2cncc3cn[nH]c23)ccc1C(C)C [Compound 209]	< 100 nM
CCOc1cc(C(=O)N(C)[C@H](CO)c2cnc(C)c3cn[nH]c23)ccc1-c1cccc(Cl)c1 [Compound 019]	< 100 nM
CCOc1cc(C(=O)N(CCN2CCCC(F)(F)C2)Cc2cncc3cn[nH]c23)ccc1-c1cccc(F)c1 [Compound 113]	< 100 nM
CCOc1cc(C(=O)N(C)[C@H](CCOC)c2cncc3cn[nH]c23)ccc1-c1cccc(Cl)c1 [Compound 016]	> 15000 nM
CCOc1cc(C(=O)N(C)[C@@H](c2cncc3cn[nH]c23)[C@H]2CCNC2)ccc1-c1ccccc1 [Compound 152]	500 to 1000 nM
CCOc1cc(C(=O)N(CCO)Cc2cnc(N)c3cn[nH]c23)ccc1-c1cccc(Cl)c1 [Compound 046]	< 100 nM
CCOc1cc(C(=O)N(C)[C@H](c2cncc3cn[nH]c23)[C@H]2CCNC2)ccc1-c1cccc(F)c1 (single isomer, unassigned) [Compound 085]	< 100 nM
CCOc1cc(C(=O)N(Cc2cncc3cn[nH]c23)C2CC(NC)C2)ccc1-c1ccccc1 (centres unmarked) [Compound 237]	1000 to 15000 nM
CCOc1cc(C(=O)N(C)[C@H](CCN(C)C)c2ccc(C)c3cn[nH]c23)ccc1-c1cccc(F)c1 [Compound 200]	100 to 500 nM
CCOc1cc(C(=O)N(Cc2cccc3cn[nH]c23)[C@H]2C[C@@H](N)C2)ccc1-c1cccc(C#N)c1 [Compound 292]	< 100 nM
CCOc1cc(C(=O)N(CCO)Cc2cnc(NC)c3cn[nH]c23)ccc1-c1cccc(C#N)c1 [Compound 044]	100 to 500 nM
CCOc1cc(C(=O)N(C)[C@H](CCN(C)C)c2cncc3cn[nH]c23)ccc1-c1cc(F)cc(C#N)c1 [Compound 279]	< 100 nM
CCOc1cc(C(=O)N(Cc2cncc3cn[nH]c23)[C@H]2C[C@@H](N(C)C)C2)ccc1-c1cccc(Cl)c1 [Compound 253]	< 100 nM
CCOc1cc(C(=O)N(CCN2C[C@@H](F)C[C@H](F)C2)Cc2cncc3cn[nH]c23)ccc1-c1cccc(F)c1 [Compound 111]	< 100 nM
CCOc1cc(C(=O)N(C)[C@H](c2cccc3cn[nH]c23)C2CN(C)C2)ccc1-c1cccc(Cl)c1 [Compound 283]	< 100 nM
CCOc1cc(C(=O)N(C)[C@@H](c2cncc3cn[nH]c23)[C@H]2CCNC2)ccc1-c1cccc(F)c1 (single isomer, unassigned) [Compound 089]	< 100 nM
CCOc1cc(C(=O)N(C)[C@@H](CN(CC)CC)c2cncc3cn[nH]c23)ccc1-c1cccc(F)c1 [Compound 128]	< 100 nM
CCOc1cc(C(=O)N(C)[C@H](c2cnc(C)c3cn[nH]c23)C2CN(C)C2)ccc1-c1cccc(F)c1 [Compound 065]	< 100 nM
CCOc1cc(C(=O)N(Cc2cncc3cn[nH]c23)C2CC(N(C)C)C2)ccc1-c1cccc(F)c1 (centres unmarked) [Compound 240]	500 to 1000 nM
